Tgt: full-length recombinant mouse PAD4 (mouse) (UniProt Q9Z183)
Sequence (Q9Z183 whole entry): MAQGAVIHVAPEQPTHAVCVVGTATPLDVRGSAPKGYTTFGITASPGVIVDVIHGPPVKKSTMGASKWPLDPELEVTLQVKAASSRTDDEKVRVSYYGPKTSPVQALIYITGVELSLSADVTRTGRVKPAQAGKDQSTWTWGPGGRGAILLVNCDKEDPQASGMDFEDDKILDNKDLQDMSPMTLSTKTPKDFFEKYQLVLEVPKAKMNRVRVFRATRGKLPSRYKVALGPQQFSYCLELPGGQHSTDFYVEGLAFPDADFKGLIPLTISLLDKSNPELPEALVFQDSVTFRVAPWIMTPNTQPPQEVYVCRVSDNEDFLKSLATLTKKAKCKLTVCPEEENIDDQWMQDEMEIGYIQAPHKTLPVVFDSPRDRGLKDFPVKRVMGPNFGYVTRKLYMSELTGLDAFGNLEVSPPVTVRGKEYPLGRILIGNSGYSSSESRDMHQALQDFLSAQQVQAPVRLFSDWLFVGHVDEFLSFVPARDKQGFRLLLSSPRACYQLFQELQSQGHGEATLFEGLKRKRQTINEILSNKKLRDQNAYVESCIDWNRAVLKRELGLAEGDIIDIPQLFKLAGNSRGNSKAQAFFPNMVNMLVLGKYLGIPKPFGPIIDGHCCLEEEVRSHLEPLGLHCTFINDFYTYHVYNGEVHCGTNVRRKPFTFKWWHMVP
Assay details: ELISA, mouse PAD4 on plate, antibody 6.104E-05 ug/mL
Observation type: absorbance 490 nm/630 nm (OD)
Please give a number only; it is taken to be in OD.

Find the recorded absorbance 490 nm/630 nm belonging to G9 (antibody, IgG1, V domains shown) VH: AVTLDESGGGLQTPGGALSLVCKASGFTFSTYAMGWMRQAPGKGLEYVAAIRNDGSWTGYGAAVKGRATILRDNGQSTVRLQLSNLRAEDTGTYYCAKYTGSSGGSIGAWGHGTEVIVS VL: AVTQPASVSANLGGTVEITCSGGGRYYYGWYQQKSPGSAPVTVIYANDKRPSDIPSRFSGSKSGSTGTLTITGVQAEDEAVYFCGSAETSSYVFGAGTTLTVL and report it.
0.079

Consider the binder shown here: G6 (antibody, IgG1, V domains shown) VH: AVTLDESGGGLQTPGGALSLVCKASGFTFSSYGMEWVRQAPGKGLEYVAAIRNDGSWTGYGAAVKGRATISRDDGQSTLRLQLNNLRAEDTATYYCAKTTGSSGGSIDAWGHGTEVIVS VL: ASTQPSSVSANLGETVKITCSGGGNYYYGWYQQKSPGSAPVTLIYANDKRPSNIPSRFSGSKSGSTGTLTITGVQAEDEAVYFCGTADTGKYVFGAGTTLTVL What is its recorded absorbance 490 nm/630 nm?
0.044

Recorded absorbance 490 nm/630 nm of A11 (antibody, IgG1, V domains shown) VH: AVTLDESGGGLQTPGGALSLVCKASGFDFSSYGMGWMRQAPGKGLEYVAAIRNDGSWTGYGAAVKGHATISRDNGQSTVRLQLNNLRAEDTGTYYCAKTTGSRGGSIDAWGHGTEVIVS VL: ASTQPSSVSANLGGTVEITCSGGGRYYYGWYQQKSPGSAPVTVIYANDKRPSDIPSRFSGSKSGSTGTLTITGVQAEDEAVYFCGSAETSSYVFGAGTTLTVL , please.
0.045
